# reported % Inh. (% Inhibition of SARS-CoV-2); entries follow
# Tested on: SARS-CoV-2
# measurement-context: 10 µM
# output: bare number, implied unit %

As a guide, the following entries are already answered.
molecule=CNC(=O)Nc1ccc(-c2nc(N3CC4CCC(C3)O4)c3cnn(C4CCC5(CC4)OCCO5)c3n2)cc1 assayed_target=SARS-CoV-2 unit=% number=99.7
molecule="Cc1cc(C)c(NC(=O)C2CC3CCC2C3)c(C)c1 (stereo not drawn)" assayed_target=SARS-CoV-2 unit=% number=69.5
molecule=O=C1Nc2ccccc2C2(CCN(CCc3ccc(C(F)(F)F)cc3)CC2)O1 assayed_target=SARS-CoV-2 unit=% number=82.1

(Q) Which % Inh. (% Inhibition of SARS-CoV-2) is reported with SARS-CoV-2 for this entry: O=C1Nc2ccc(Cl)c3c2C1(CCCCN1CC=C(c2ccc(Cl)cc2)CC1)CCC3 (stereo not drawn) ?
(A) 82.8

(Q) Record lookup: for SARS-CoV-2, what % Inh. (% Inhibition of SARS-CoV-2) belongs to C=CC(=O)Nc1ccc2ncnc(Nc3cccc(Br)c3)c2c1 ?
(A) 51.5

(Q) Recorded % Inh. (% Inhibition of SARS-CoV-2) for OC12C3C4CC5C6C4C1C6C(C53)N2CCc1cccc(F)c1 (stereo not drawn) with SARS-CoV-2, please?
(A) 53.2

(Q) Tell me reported % Inh. (% Inhibition of SARS-CoV-2) for N#Cc1ccc(-c2csc(NN=C3CCCC3)n2)cc1 , tested with SARS-CoV-2.
(A) 99.4

(Q) Query for SARS-CoV-2: what % Inh. (% Inhibition of SARS-CoV-2) does the record show for CNc1cc2c(Nc3cccc(Br)c3)ncnc2cn1 ?
(A) 98.3

(Q) Request body: readout % Inh. (% Inhibition of SARS-CoV-2), system SARS-CoV-2, query CC(C)(C)n1nc(-c2cccc3ccccc23)c2c(N)ncnc21 . Return the value.
(A) 94.1

* * *

# % Inh. (% Inhibition of SARS-CoV-2) listing for each entry below
# Test system: SARS-CoV-2
# measurement-context: 10 µM
Give a bare numeral; the unit % is implied.

Please review the following examples before continuing.
compound=Nc1[nH]nc2nnc(-c3c(-c4ccccc4)nn4ccccc34)cc12 measured_property="% Inh. (% Inhibition of SARS-CoV-2)" number=58.8
compound=CNCc1ccc(C)c(NC(=O)c2ccc(Nc3nc(-c4ccccc4)c4ccccc4n3)cc2)c1 measured_property="% Inh. (% Inhibition of SARS-CoV-2)" number=68.8
compound=CC(C)CNc1ccnc(NCc2csc(-c3ccccc3)n2)n1 measured_property="% Inh. (% Inhibition of SARS-CoV-2)" number=91.2

(Q) Look up % Inh. (% Inhibition of SARS-CoV-2) for this compound: CCn1c(=O)n(C2=C(CO)CN(CC3CCCCCCC3)CC2)c2ccccc21
(A) 77.9

(Q) Looking for the measured % Inh. (% Inhibition of SARS-CoV-2) of Cl.c1ccc2c(-c3cnn4cc(-c5ccc(N6CCNCC6)cc5)cnc34)ccnc2c1 [LDN193189 (Hydrochloride)] , can you help?
(A) 74.3

(Q) Entry under review: CCCCC1(C2CCCC2)Cc2cc(OCCCC(=O)O)c(Cl)c(Cl)c2C1=O (stereo not drawn) . Reported % Inh. (% Inhibition of SARS-CoV-2)?
(A) 80.3

(Q) Which % Inh. (% Inhibition of SARS-CoV-2) reading was recorded for the compound O=c1oc(-c2ccc(C(F)(F)F)cc2)nn1Cc1cc(Cl)ccc1O ?
(A) 52.3

(Q) Entry CCCCCCCCCCCCCCCC[N+](C)(C)C.[Br-] [CETRIMONIUM BROMIDE] has what % Inh. (% Inhibition of SARS-CoV-2)?
(A) 87.7
